B1: RAB22A (parent)
chain: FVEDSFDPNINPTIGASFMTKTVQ

Variants of: B1
Test: protein stability index of a GFP-peptide fusion (GPS, HEK-293T) (PSI 1-6); higher = more stable;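 note: lentivirally expressed fusions sorted by FACS into six bins by GFP to DsRed ratio, PSI derived from sequencing read proportions per bin multiplied by bin number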
Conditions: c terminus: a fixed tail appended
Threshold rule: protein stability index greater than or equal to 2 is true; below that, false.

INSERT INTO results (residues, category_label) VALUES
  ('FVEDSADPNINPTIGASFMTKTVQ [F6A]', 'true'),
  ('FVEDSFDPNINPTIGAYFMTKTVQ [S17Y]', 'false'),
  ('FVEDSFDPNINPTIGMSFMTKTVQ [A16M]', 'false'),
  ('FVEDSFDPNINWTIGASFMTKTVQ [P12W]', 'true'),
  ('FVEDSFDPNINPTIGASFMTKTVS [Q24S]', 'true'),
  ('FVEDSFDPNINPTIGASFKTKTVQ [M19K]', 'true'),
  ('FVEDSFDPNINPTIGASFMTKTVR [Q24R]', 'true'),
  ('FVDDSFDPNINPTIGASFMTKTVQ [E3D]', 'true'),
  ('FVEDSFDPNINPTNGASFMTKTVQ [I14N]', 'true'),
  ('FVEQSFDPNINPTIGASFMTKTVQ [D4Q]', 'false');

Numbers sourced from the supplement of paper PMC10567573.
